TESTED_TARGET: PKCa (Homo sapiens)
MEASUREMENT_PROTOCOL: Kinase profiling PKCa
Type: biochemical
PROTOCOL_CONDITIONS: 100 micromolar inhibitor concentration; 100 is no change
EXPERIMENTAL_READOUT: residual kinase activity, PKCa

COMPOUND: O=C(Nc1nc2ccc(C(F)(F)F)cc2s1)c1ccccc1 [Compound 03-99]
EXPERIMENTAL_READOUT: residual kinase activity, PKCa
ENDPOINT_VALUE: 114
//
COMPOUND: COC(=O)c1cccc(C(=O)Nc2nc3cc(OC)ccc3s2)c1 [Compound 03-108]
EXPERIMENTAL_READOUT: residual kinase activity, PKCa
ENDPOINT_VALUE: 85
//
COMPOUND: COc1ccc2sc(NC(=O)c3cccc(C(N)=O)c3)nc2c1 [Compound 03-113]
EXPERIMENTAL_READOUT: residual kinase activity, PKCa
ENDPOINT_VALUE: 103

###

TESTED_TARGET: ERK2 (Homo sapiens, UniProt P28482)
Sequence (P28482 whole entry, species assumed): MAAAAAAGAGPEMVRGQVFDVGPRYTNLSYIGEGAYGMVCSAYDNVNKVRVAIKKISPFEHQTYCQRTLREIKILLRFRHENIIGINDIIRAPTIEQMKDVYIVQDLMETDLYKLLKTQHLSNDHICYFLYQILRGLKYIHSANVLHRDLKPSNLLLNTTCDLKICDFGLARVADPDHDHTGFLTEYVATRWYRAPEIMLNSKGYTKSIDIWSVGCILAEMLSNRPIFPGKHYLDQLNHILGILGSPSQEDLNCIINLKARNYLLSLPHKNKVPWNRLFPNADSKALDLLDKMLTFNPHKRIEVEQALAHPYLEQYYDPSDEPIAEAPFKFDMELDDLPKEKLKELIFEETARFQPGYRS
MEASUREMENT_PROTOCOL: Kinase profiling ERK2
Assay type: biochemical
PROTOCOL_CONDITIONS: 100 micromolar inhibitor concentration; 100 is no change

COMPOUND: O=C(Nc1nc2ccc(O)cc2s1)c1ccccc1 [Compound 03-60]
residual kinase activity, ERK2: 82
--
COMPOUND: O=C(Nc1nc2cc(O)ccc2s1)c1ccccn1 [Compound 03-13]
residual kinase activity, ERK2: 100
--
COMPOUND: COc1ccc2sc(NC(=O)c3cccc(NC(C)=O)c3)nc2c1 [MS:LY-2-85]
residual kinase activity, ERK2: 98

###

TESTED_TARGET: MST4 (Homo sapiens)
Sequence (Q9P289 whole entry, species assumed): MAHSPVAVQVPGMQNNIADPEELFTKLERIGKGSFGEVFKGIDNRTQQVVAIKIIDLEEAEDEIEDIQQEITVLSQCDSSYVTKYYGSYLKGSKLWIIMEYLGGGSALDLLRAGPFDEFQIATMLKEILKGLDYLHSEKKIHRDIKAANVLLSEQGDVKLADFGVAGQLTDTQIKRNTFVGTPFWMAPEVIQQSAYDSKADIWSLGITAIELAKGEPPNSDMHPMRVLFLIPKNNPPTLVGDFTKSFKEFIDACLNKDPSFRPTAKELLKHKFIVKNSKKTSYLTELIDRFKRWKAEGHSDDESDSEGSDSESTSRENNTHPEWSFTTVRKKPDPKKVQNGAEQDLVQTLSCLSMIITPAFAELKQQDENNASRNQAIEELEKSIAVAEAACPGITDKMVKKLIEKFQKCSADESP
MEASUREMENT_PROTOCOL: Kinase profiling MST4
Assay type: biochemical
PROTOCOL_CONDITIONS: 100 micromolar inhibitor concentration; 100 is no change
# reported residual kinase activity, MST4; entries follow

COMPOUND: O=C(Nc1nc2ccc(O)cc2s1)c1cccnc1 [Compound 08-44]
residual kinase activity, MST4: 80
//
COMPOUND: O=C(Nc1nc2ccc(O)cc2s1)c1ccncc1 [Compound 08-42]
residual kinase activity, MST4: 79
//
COMPOUND: O=C(Nc1nc2ccc(O)cc2s1)c1ccccn1 [Compound 03-12]
residual kinase activity, MST4: 80

###

TESTED_TARGET: PKA (Homo sapiens)
MEASUREMENT_PROTOCOL: Kinase profiling PKA
Format: biochemical
PROTOCOL_CONDITIONS: 100 micromolar inhibitor concentration; 100 is no change
EXPERIMENTAL_READOUT: residual kinase activity, PKA

STRUCTURE_SMILES: O=C(Nc1nc2ccc(O)cc2s1)c1ccncc1
ENDPOINT_VALUE: 91
//
STRUCTURE_SMILES: CC(=O)Nc1ccc(C(=O)Nc2nc3cc(O)ccc3s2)cc1
ENDPOINT_VALUE: 93
//
STRUCTURE_SMILES: CC(=O)Nc1nc2ccccc2s1
ENDPOINT_VALUE: 91
//
STRUCTURE_SMILES: O=C(Nc1nc2ccc(F)cc2s1)c1ccccc1
ENDPOINT_VALUE: 96
//
STRUCTURE_SMILES: COc1ccc2sc(NC(=O)c3ccc(NC(C)=O)cc3)nc2c1
ENDPOINT_VALUE: 102
//
STRUCTURE_SMILES: COc1ccc2sc(NC(=O)c3ccccc3)nc2c1
ENDPOINT_VALUE: 83
//
STRUCTURE_SMILES: O=C(Nc1nc2cc(O)ccc2s1)c1ccccn1
ENDPOINT_VALUE: 102
//
STRUCTURE_SMILES: N#Cc1ccc2nc(NC(=O)c3ccccc3)sc2c1
ENDPOINT_VALUE: 91
//
STRUCTURE_SMILES: COC(=O)c1cccc(C(=O)Nc2nc3ccc(F)cc3s2)c1
ENDPOINT_VALUE: 93
//
STRUCTURE_SMILES: CC(=O)Nc1nc2ccc(F)cc2s1
ENDPOINT_VALUE: 93

###

TESTED_TARGET: p38d MAPK (Homo sapiens, UniProt O15264)
Sequence (O15264 1-365): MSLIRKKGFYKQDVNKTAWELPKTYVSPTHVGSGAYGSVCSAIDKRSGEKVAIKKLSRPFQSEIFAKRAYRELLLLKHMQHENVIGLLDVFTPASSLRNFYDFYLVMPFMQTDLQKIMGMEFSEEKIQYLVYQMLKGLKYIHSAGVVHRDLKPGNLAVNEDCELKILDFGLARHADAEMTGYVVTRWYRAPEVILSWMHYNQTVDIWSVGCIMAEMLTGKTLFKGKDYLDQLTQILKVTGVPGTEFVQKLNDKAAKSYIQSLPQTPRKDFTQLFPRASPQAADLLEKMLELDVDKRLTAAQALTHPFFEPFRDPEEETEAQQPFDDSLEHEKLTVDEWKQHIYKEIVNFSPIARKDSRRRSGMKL
MEASUREMENT_PROTOCOL: Kinase profiling p38d MAPK
Type: biochemical
PROTOCOL_CONDITIONS: 100 micromolar inhibitor concentration; 100 is no change

STRUCTURE_SMILES: CC(=O)Nc1nc2ccccc2s1
residual kinase activity, p38d MAPK: 80
//
STRUCTURE_SMILES: CC(=O)Nc1cccc(C(=O)Nc2nc3cc(O)ccc3s2)c1
residual kinase activity, p38d MAPK: 70
//
STRUCTURE_SMILES: O=C(Nc1nc2ccc(O)cc2s1)c1ccccc1
residual kinase activity, p38d MAPK: 75
//
STRUCTURE_SMILES: CC(=O)Nc1cccc(C(=O)Nc2nc3ccc(O)cc3s2)c1
residual kinase activity, p38d MAPK: 75
//
STRUCTURE_SMILES: O=C(Nc1nc2cc(O)ccc2s1)c1ccncc1
residual kinase activity, p38d MAPK: 82
//
STRUCTURE_SMILES: COc1ccc2sc(NC(=O)c3ccc(NC(C)=O)cc3)nc2c1
residual kinase activity, p38d MAPK: 98
//
STRUCTURE_SMILES: O=C(Nc1nc2cc(O)ccc2s1)c1cccnc1
residual kinase activity, p38d MAPK: 103

###

TESTED_TARGET: MARK3 (Homo sapiens, UniProt P27448)
Sequence (P27448 whole entry, species assumed): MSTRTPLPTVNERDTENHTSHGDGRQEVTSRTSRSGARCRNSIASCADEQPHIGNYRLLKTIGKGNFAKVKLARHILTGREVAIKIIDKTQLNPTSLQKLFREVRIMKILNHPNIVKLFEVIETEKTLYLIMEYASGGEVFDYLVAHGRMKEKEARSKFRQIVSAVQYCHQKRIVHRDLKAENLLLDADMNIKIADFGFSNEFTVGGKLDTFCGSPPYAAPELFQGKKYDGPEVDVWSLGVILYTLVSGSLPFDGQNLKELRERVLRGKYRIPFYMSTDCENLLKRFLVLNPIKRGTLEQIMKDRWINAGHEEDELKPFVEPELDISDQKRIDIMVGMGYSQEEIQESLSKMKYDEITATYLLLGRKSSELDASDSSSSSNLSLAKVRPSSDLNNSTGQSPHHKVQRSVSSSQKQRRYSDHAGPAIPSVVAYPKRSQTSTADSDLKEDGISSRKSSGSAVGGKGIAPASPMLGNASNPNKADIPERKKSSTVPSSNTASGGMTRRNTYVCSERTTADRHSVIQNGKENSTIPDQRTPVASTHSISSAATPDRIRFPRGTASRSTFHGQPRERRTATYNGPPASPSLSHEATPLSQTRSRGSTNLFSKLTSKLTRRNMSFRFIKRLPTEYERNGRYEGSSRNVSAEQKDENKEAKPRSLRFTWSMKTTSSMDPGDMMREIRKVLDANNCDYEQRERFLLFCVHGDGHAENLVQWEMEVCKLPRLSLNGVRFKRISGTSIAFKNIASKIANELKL
MEASUREMENT_PROTOCOL: Kinase profiling MARK3
Type: biochemical
PROTOCOL_CONDITIONS: 100 micromolar inhibitor concentration; 100 is no change

STRUCTURE_SMILES: O=C(Nc1nc2cc(O)ccc2s1)c1ccncc1
residual kinase activity, MARK3: 75

STRUCTURE_SMILES: O=C(Nc1nc2cc(O)ccc2s1)c1ccccn1
residual kinase activity, MARK3: 68

STRUCTURE_SMILES: O=C(Nc1nc2cc(O)ccc2s1)c1cccnc1
residual kinase activity, MARK3: 85

STRUCTURE_SMILES: COc1ccc2nc(NC(=O)c3ccccc3)sc2c1
residual kinase activity, MARK3: 72

###

TESTED_TARGET: p38a MAPK (Homo sapiens, UniProt Q16539)
Sequence (Q16539 whole entry): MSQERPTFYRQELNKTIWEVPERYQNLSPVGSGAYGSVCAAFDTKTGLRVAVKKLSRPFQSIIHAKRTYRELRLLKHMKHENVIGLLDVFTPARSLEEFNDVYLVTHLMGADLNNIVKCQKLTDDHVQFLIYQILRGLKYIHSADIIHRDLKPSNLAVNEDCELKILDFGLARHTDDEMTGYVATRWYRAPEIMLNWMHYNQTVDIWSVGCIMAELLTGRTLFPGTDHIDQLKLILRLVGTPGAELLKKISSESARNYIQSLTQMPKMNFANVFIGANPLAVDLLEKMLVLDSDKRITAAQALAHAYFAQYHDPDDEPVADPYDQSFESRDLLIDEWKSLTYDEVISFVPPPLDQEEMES
MEASUREMENT_PROTOCOL: Kinase profiling p38a MAPK
Type: biochemical
PROTOCOL_CONDITIONS: 100 micromolar inhibitor concentration; 100 is no change

STRUCTURE_SMILES: O=C(Nc1nc2cc(O)ccc2s1)c1ccccc1
residual kinase activity, p38a MAPK: 57

STRUCTURE_SMILES: COc1ccc2sc(NC(=O)c3ccccc3)nc2c1
residual kinase activity, p38a MAPK: 82

STRUCTURE_SMILES: COC(=O)c1cccc(C(=O)Nc2nc3ccc(F)cc3s2)c1
residual kinase activity, p38a MAPK: 106

STRUCTURE_SMILES: N#Cc1ccc2nc(NC(=O)c3ccccc3)sc2c1
residual kinase activity, p38a MAPK: 60

STRUCTURE_SMILES: COc1ccc2sc(NC(=O)c3cccc(C(N)=O)c3)nc2c1
residual kinase activity, p38a MAPK: 113

STRUCTURE_SMILES: COc1ccc2sc(NC(=O)c3ccc(NC(C)=O)cc3)nc2c1
residual kinase activity, p38a MAPK: 109

STRUCTURE_SMILES: CC(=O)Nc1cccc(C(=O)Nc2nc3ccc(O)cc3s2)c1
residual kinase activity, p38a MAPK: 81

STRUCTURE_SMILES: O=C(Nc1nc2ccc(O)cc2s1)c1ccccn1
residual kinase activity, p38a MAPK: 107
